# Assay System: T1, human p40 subunit protein (human, UniProt P29460 23-328)
# T1 construct: p40 subunit alone; also called hp40
# T1 sequence (looked up): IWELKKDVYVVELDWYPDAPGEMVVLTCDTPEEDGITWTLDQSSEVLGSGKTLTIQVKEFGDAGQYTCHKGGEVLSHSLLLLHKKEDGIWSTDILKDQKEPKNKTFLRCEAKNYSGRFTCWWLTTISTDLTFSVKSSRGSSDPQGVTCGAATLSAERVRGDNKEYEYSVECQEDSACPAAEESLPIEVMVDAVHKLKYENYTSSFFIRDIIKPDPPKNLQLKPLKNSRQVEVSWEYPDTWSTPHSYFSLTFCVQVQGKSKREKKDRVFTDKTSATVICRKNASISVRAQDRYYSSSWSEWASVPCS
# Measurement Protocol: SPR (BIAcore); antibody captured on anti-Fc chip, antigen injected
Readout: binding result

Binder: Hu-4 18006B** (recombinant, hIgG4) (antibody, V domains shown) VH: QVHLVQSGAEVKKPGASVKVSCKASGYTFSSYGINWVRQAPGQGLEWMGWISAYSGNTDYSQHLQGRVTMTTDTSTNTAYMELRSLRSDDTAVYYCARASANWYDYFDPWGQGTLVTVSS VL: EIVLTQSPDFQSVTPKEKVTITCRASQTIGGSLHWYQQKPDQSPKLLITYASQSFSGVPSRFSGSGSGTDFTLTIHSLEAEDAATYYCHQSSILPYTFGQGTKLEIK
Readout: binding result
Val: no binding
--
Binder: Hu-4 18006B* (recombinant, mIgG2a) (antibody, V domains shown) VH: QVHLVQSGAEVKKPGASVKVSCKASGYTFSSYGINWVRQAPGQGLEWMGWISAYSGNTDYSQHLQGRVTMTTDTSTNTAYMELRSLRSDDTAVYYCARASANWYDYFDPWGQGTLVTVSS VL: EIVLTQSPDFQSVTPKEKVTITCRASQTIGGSLHWYQQKPDQSPKLLITYASQSFSGVPSRFSGSGSGTDFTLTIHSLEAEDAATYYCHQSSILPYTFGQGTKLEIK
Readout: binding result
Val: no binding
--
Binder: Hu-6 18006B* (recombinant mIgG2a) (antibody, V domains shown) VH: QVQLVQSGAEVKKPGASVKVSCKTSGYTFTYYGISWVRQAPGQGLEWMGLISAYNGNTNYGQKVQGRVTMTTDTSTSTAYMELRSLRSDDTAVYYCVTENINWRDAFDIWGQGTMVTVSS VL: EIVLTQSPDFQSVTPKEKVTITCRASQTIGSSLHWYQQKPDQSPKLLIKYASQSISGVPSRFSGSGSGTDFTLTINSLEAEDAAAYYCHQSSSLPYTFGQGTKLEIK
Readout: binding result
Val: no binding
--
Binder: Hu-2 18006B (antibody, V domains shown, Purified from hybridoma (Trianni mice); also called H-2 1800B (mIgG1)) VH: QVQLVQSGAEVKKPGASVKVSCKASGYTFTTYGISWVRQAPGQGLEWMGWISAYNGNTKYAQKLQGRVTMTTDTSTSTAYMELRSLRSDDTAVYYCAREWRAFYYYGLDVWGQGTTVTVSS VL: DIVMTQTPLSSPVTLGQPASISCRSSQSLEHSDGNTYLSWLQQRPNQPPRLLIYKVSNRFSGVPDRFSGSGAGTDFTLKISRVEAEDVGVYYCTQATQFPLTFGGGTKVEIK
Readout: binding result
Val: no binding
